- testedTarget: Torsin-1A (Homo sapiens) (UniProt O14656)
- Sequence (O14656 whole entry, looked up): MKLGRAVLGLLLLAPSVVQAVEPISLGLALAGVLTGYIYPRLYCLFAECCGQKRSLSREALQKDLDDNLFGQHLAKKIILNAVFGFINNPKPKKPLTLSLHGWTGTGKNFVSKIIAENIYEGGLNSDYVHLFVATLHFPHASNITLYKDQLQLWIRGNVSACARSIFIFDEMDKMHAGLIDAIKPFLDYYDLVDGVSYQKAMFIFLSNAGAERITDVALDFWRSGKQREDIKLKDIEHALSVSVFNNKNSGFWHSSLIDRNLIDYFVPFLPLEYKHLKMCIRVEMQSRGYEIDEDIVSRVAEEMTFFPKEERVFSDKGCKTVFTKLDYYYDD
- testProtocol: torsin A mutant lysate binding on microarrays – cell lysate, small-molecule microarray, COS7 lysate, 635/667 nm fluorescence, primary screen (AID 1150);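 also: score pools 667 nm emission and signal to noise measuring lysate protein binding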
- statedConditions: COS7 hTOR1A mutant lysate, 635 nm fluorescence, higher = more signal

[
  {
    "smilesNotation": "CCOC(=O)C1=CC[C@@H](c2ccccc2)N(S(=O)(=O)c2ccc(C)cc2)[C@H]1C=C(C)C",
    "composite z-score": 1.46
  },
  {
    "smilesNotation": "COCCOC(=O)N1C(=O)[C@@]2(c3cc(C#CCNC(N)=O)ccc31)[C@H](C(=O)N1CCCCCCC1)[C@H]1C(=O)O[C@H](c3ccccc3)[C@H](c3ccccc3)N1[C@@H]2c1ccc(OCCO)cc1",
    "composite z-score": 0.145
  },
  {
    "smilesNotation": "COc1ccc(C(=O)Nc2ccc3c(c2)[C@]2(O[C@@H](CCO)[C@H]([Si](C)(C)c4ccc(OC)cc4)[C@H]2C)C(=O)N3Cc2ccccc2)cc1",
    "composite z-score": 0.671
  }
]

###

Reported z-score is given for each of the following molecules.
- testProtocol: JC-1 mitochondrial signal, unstimulated MM1S myeloma – cell-based, JC-1 fluorescence, 24 h, 100 nL compound, profiling panel (AID 1170); also: test concentration not given here
- statedConditions: MM1S mitochondrial potential, higher = more signal
measuredProperty: z-score

[
  {
    "molecule": "COC(=O)C(CC#Cc1ccc2c(c1)[C@]1(C(=O)N2)[C@H](c2ccc(O)cc2)N2[C@H](c3ccccc3)[C@H](c3ccccc3)OC(=O)[C@H]2[C@@H]1C(=O)O)C(=O)OC",
    "measuredProperty": "z-score",
    "reportedMeasurement": 0.412
  },
  {
    "molecule": "COc1ccc(C#Cc2ccc3c(c2)[C@]2(C(=O)N3)[C@H](C(=O)O)[C@H]3C(=O)O[C@H](c4ccccc4)[C@H](c4ccccc4)N3[C@@H]2c2ccc(OCCO)cc2)cc1",
    "measuredProperty": "z-score",
    "reportedMeasurement": -1.27
  },
  {
    "molecule": "C=CCOC(=O)[C@@H]1[C@H]2C(=O)O[C@H](c3ccccc3)[C@H](c3ccccc3)N2[C@H](c2ccc(OCCOC(=O)[C@H]3C[C@H]4C(=O)N[C@@H](Cc5ccccc5)C(=O)N4[C@H]3c3cccc(OCCO)c3)cc2)[C@@]12C(=O)Nc1ccc(I)cc12",
    "measuredProperty": "z-score",
    "reportedMeasurement": -1.57
  },
  {
    "molecule": "CCCC=C(CCC)[C@@H](NS(=O)(=O)c1ccccc1)c1ccc(C(F)(F)F)cc1",
    "measuredProperty": "z-score",
    "reportedMeasurement": -2.47
  },
  {
    "molecule": "COCCCNC(=O)[C@@]1(Cc2ccccc2CN=[N+]=[N-])N=C(c2ccc(OCCCO)cc2)O[C@H]1c1ccccc1N=[N+]=[N-]",
    "measuredProperty": "z-score",
    "reportedMeasurement": -0.156
  },
  {
    "molecule": "COCCOC(=O)N1C(=O)[C@@]2(c3cc(C#CC4(O)CCCCCC4)ccc31)[C@H](C(=O)N1CCN(c3ncccn3)CC1)[C@H]1C(=O)O[C@H](c3ccccc3)[C@H](c3ccccc3)N1[C@@H]2c1ccc(O)cc1",
    "measuredProperty": "z-score",
    "reportedMeasurement": 0.532
  },
  {
    "molecule": "COC(=O)[C@@]1(Cc2ccccc2N=[N+]=[N-])N=C(c2ccc(OCCCO)cc2)O[C@H]1c1ccccc1",
    "measuredProperty": "z-score",
    "reportedMeasurement": -2.9
  },
  {
    "molecule": "COC(=O)[C@H]1N=C(c2ccc(OCCCO)cc2)O[C@H]1c1ccccc1CN=[N+]=[N-]",
    "measuredProperty": "z-score",
    "reportedMeasurement": -0.823
  },
  {
    "molecule": "CC[C@@H]1[C@@H]2C3C(=O)N(CC)C(=O)C3CC(=O)[C@@H]2[C@H](c2ccc(C)cc2)N1S(=O)(=O)c1ccc(C)cc1 (some centres not stated)",
    "measuredProperty": "z-score",
    "reportedMeasurement": -1.59
  },
  {
    "molecule": "C=CCOC(=O)[C@@H]1[C@H]2C(=O)O[C@H](c3ccccc3)[C@H](c3ccccc3)N2[C@H](c2ccc(OCCOC(=O)[C@@H]3C[C@@H]4C(=O)N5CCC[C@H]5C(=O)N4[C@@H]3c3cccc(OCCO)c3)cc2)[C@@]12C(=O)Nc1ccc(I)cc12",
    "measuredProperty": "z-score",
    "reportedMeasurement": -0.984
  },
  {
    "molecule": "C=C(/C(=C/C[C@@H](OC(=O)c1ccncc1)c1ccccc1OCCO)c1cnc2ccccc2c1)C(C)C",
    "measuredProperty": "z-score",
    "reportedMeasurement": 1.08
  },
  {
    "molecule": "O=C1C[C@@](C(=O)NCc2ccccc2)(c2ccc([N+](=O)[O-])cc2)[C@@H](c2ccc(CO)cc2I)N1C1CCCCC1",
    "measuredProperty": "z-score",
    "reportedMeasurement": 0.576
  }
]

The measured values listed here are drawn from PubChem BioAssay.
